Answer each item with its documented EC50.
# targetDesc: human activated kallikrein enzyme (Homo sapiens (Human))
# protocolNotes: Plasma kallikrein inhibition assay with fluorogenic peptide substrate, 500 pM activated kallikrein format
# Assay type: biochemical
# condition: 500 pM activated kallikrein; 300 uM Pro-Phe-Arg-7-amido-4-methylcoumarin substrate; 30 min preincubation, 10 min reaction at RT; read-out: Primary Dose Response Assay: Average EC50

Exercise: Using the record for Cc1cc(N)nc(C)c1CNC(=O)c1cn(Cc2cn3cc(C4CC4)ccc3n2)nn1 , report its EC50.
Key: ≤ 1 nM

Exercise: Using the record for O=C(NCc1c(C(F)F)ccc(Cl)c1F)c1cn(Cc2cn3cc(C4CC4)ccc3n2)nn1 , report its EC50.
Key: 10 to 100 nM

Exercise: Using the record for O=C(NCc1cn(Cc2cn3cc(C4CC4)ccc3n2)nn1)c1ncc2c(F)c(Cl)ccn12 , report its EC50.
Key: > 7100 nM

Exercise: Using the record for NCc1cc2c(cn1)N(C(=O)c1cn(Cc3cn4cc(C5CC5)ccc4n3)nn1)CC2 , report its EC50.
Key: 100 to 2000 nM

Exercise: Using the record for COc1ccc(-n2ccc(C(F)(F)F)n2)c(CNC(=O)c2cn(Cc3cn4cc(C5CC5)ccc4n3)nn2)c1F , report its EC50.
Key: 1 to 10 nM

Exercise: Using the record for COc1ccc(-n2cnc(C(F)(F)F)n2)c(CNC(=O)c2cn(Cc3cn4cc(C5CC5)ccc4n3)nn2)c1F , report its EC50.
Key: ≤ 1 nM

Exercise: Using the record for COc1ccc(C#N)c(CNC(=O)c2cnn(Cc3cn4cc(C5CC5)ccc4n3)c2)c1F , report its EC50.
Key: 1 to 10 nM

Exercise: Using the record for COc1ccc(-c2cn[nH]c2)c(CNC(=O)c2cn(Cc3cn4cc(C5CC5)ccc4n3)nn2)c1F , report its EC50.
Key: 1 to 10 nM

Exercise: Using the record for O=C(NCc1c(-n2cnnn2)ccc(C2CC2)c1F)c1cn(Cc2cn3cc(C4CC4)ccc3n2)nn1 , report its EC50.
Key: 10 to 100 nM

Exercise: Using the record for COc1ccc(-n2cnnn2)c(CNC(=O)c2cn(Cc3cn4cc(C5CC5)cc(F)c4n3)nn2)c1F , report its EC50.
Key: ≤ 1 nM

Exercise: Using the record for CS(=O)(=O)c1ccccc1CNC(=O)c1cn(Cc2cn3cc(C4CC4)ccc3n2)nn1 , report its EC50.
Key: 100 to 2000 nM

Exercise: Using the record for CCOC(=O)C(C)(C)Cc1cc(C2CC2)cn2cc(Cn3cc(C(=O)NCc4c(-n5cnnn5)ccc(OC)c4F)nn3)nc12 , report its EC50.
Key: ≤ 1 nM

Exercise: Using the record for COc1ccc(-n2ccnc2)c(CNC(=O)c2cn(Cc3cn4cc(C5CC5)ccc4n3)nn2)c1F , report its EC50.
Key: 1 to 10 nM

Exercise: Using the record for COc1ccc(-n2cnnn2)c(CNC(=O)c2nnc(Cc3cn4cc(C5CC5)ccc4n3)o2)c1F , report its EC50.
Key: ≤ 1 nM

Exercise: Using the record for CCOC(=O)c1cc(C2CC2)cn2cc(Cn3cc(C(=O)NCc4c(C)cc(C(=N)N)cc4C)nn3)nc12 , report its EC50.
Key: ≤ 1 nM

###

# targetDesc: human activated kallikrein enzyme (Homo sapiens (Human), UniProt P03952)
# Sequence (P03952 391-638): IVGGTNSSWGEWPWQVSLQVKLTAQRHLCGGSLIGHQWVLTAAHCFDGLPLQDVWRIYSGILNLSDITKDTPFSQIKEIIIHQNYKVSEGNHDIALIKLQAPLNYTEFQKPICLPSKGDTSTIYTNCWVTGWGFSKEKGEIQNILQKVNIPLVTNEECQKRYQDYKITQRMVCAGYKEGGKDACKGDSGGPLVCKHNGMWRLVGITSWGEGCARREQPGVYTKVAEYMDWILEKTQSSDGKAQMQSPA
# Sequence (P03952 20-390 partner): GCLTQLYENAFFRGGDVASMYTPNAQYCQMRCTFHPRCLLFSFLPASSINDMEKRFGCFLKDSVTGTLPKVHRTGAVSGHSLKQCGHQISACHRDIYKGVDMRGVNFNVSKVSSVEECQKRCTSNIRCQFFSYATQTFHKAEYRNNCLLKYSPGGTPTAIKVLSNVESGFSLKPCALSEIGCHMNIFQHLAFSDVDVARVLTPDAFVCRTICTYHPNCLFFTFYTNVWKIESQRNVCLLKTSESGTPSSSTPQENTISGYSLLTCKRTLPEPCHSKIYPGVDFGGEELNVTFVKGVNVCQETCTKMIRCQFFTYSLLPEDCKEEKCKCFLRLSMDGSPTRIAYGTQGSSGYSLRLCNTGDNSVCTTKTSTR
# protocolNotes: Plasma kallikrein inhibition assay with fluorogenic peptide substrate, 500 pM activated kallikrein format
# Type: biochemical
# condition: 500 pM activated kallikrein; 300 uM Pro-Phe-Arg-7-amido-4-methylcoumarin substrate; 30 min preincubation, 10 min reaction at RT; read-out: Primary Dose Response Assay: Average EC50
Answer each item with its documented EC50.

Exercise: Using the record for COc1ccc(-n2cc(C)c(C)n2)c(CNC(=O)c2cn(Cc3cn4cc(C5CC5)ccc4n3)nn2)c1F , report its EC50.
Key: 10 to 100 nM

Exercise: Using the record for COc1ccc([S+](C)[O-])c(CNC(=O)c2cn(Cc3cn4cc(C5CC5)ccc4n3)nn2)c1F (stereo not drawn) , report its EC50.
Key: 2000 to 7100 nM

Exercise: Using the record for COc1ccc(-n2cnnn2)c(CNCc2cn(Cc3cn4cc(C5CC5)ccc4n3)nn2)c1F , report its EC50.
Key: 1 to 10 nM

Exercise: Using the record for O=C(NCc1cc2cc[nH]c2cn1)c1cn(Cc2cn3cc(C4CC4)ccc3n2)nn1 , report its EC50.
Key: 1 to 10 nM

Exercise: Using the record for COc1ccnc(CNC(=O)c2cn(Cc3cn4cc(C5CC5)cc(N5CCN(C)CC5)c4n3)nn2)c1F , report its EC50.
Key: ≤ 1 nM

Exercise: Using the record for COc1ccc(-n2cnnn2)c(CNC(=O)c2cnc3n2C(c2cn4cc(C5CC5)ccc4n2)CC3)c1F (stereo not drawn) , report its EC50.
Key: 2000 to 7100 nM

Exercise: Using the record for O=C(NCc1c(-n2cnnn2)ccc(OC(F)(F)F)c1F)c1cn(Cc2cn3cc(C4CC4)ccc3n2)nn1 , report its EC50.
Key: 100 to 2000 nM

Exercise: Using the record for O=C(NCc1cccc2ccc(Br)cc12)c1cnn(Cc2cn3cc(C4CC4)ccc3n2)c1 , report its EC50.
Key: 2000 to 7100 nM

Exercise: Using the record for COc1ccc(-c2cc3ccccn3n2)c(CNC(=O)c2cn(Cc3cn4cc(C5CC5)ccc4n3)nn2)c1F , report its EC50.
Key: 100 to 2000 nM

Exercise: Using the record for COc1ccc(-n2cnnn2)c(CNC(=O)c2cn(Cc3cn4cc(C5CC5)cc(CC(C)(C)C(=O)O)c4n3)nn2)c1F , report its EC50.
Key: ≤ 1 nM

Exercise: Using the record for N#CNc1ccc(Cl)c(F)c1CNC(=O)c1cn(Cc2cn3cc(C4CC4)cc(CCC(=O)O)c3n2)nn1 , report its EC50.
Key: 1 to 10 nM

Exercise: Using the record for COc1ccc(-n2cnnn2)c(CNC(=O)c2cn(Cc3cn4cc(C5CC5)cc(C(F)(F)F)c4n3)nn2)c1F , report its EC50.
Key: ≤ 1 nM

Exercise: Using the record for Cc1cc(C(=N)N)cc(C)c1CNC(=O)c1cnn(Cc2cn3cc(C4CC4)ccc3n2)c1 , report its EC50.
Key: ≤ 1 nM

Exercise: Using the record for COc1cccc(CNC(=O)c2cn(Cc3cn4cc(C5CC5)ccc4n3)nn2)c1F , report its EC50.
Key: 100 to 2000 nM

Exercise: Using the record for O=C(NCc1cc2c(Cl)nccc2s1)c1cn(Cc2cn3cc(C4CC4)ccc3n2)nn1 , report its EC50.
Key: > 7100 nM

###

# targetDesc: human activated kallikrein enzyme (Homo sapiens (Human), UniProt P03952)
# protocolNotes: Plasma kallikrein inhibition assay with fluorogenic peptide substrate, 500 pM activated kallikrein format
# Type: biochemical
# condition: 500 pM activated kallikrein; 300 uM Pro-Phe-Arg-7-amido-4-methylcoumarin substrate; 30 min preincubation, 10 min reaction at RT; read-out: Primary Dose Response Assay: Average EC50
pEC50: −log10 of the molar value.
Answer each item with its documented pEC50.

Exercise: Using the record for O=C(NCCOc1cccc(Cl)c1)c1cnn(Cc2cn3cc(C4CC4)ccc3n2)c1 [Example I-129] , report its pEC50.
Key: 5.70 to 7.00

Exercise: Using the record for COc1ccc(-n2cnnn2)c(CNS(=O)(=O)c2cn(Cc3cn4cc(C5CC5)ccc4n3)nn2)c1F [Example I-40] , report its pEC50.
Key: 7.00 to 8.00

Exercise: Using the record for Cc1c(Cl)ccc(-n2cnnn2)c1CNC(=O)c1cn(Cc2cn3cc(C4CC4)ccc3n2)nn1 [Example I-80] , report its pEC50.
Key: 5.70 to 7.00

Exercise: Using the record for COc1ccc(-n2cccn2)c(CNC(=O)c2cn(Cc3cn4cc(C5CC5)ccc4n3)nn2)c1F [Example I-95] , report its pEC50.
Key: 8.00 to 9.00

Exercise: Using the record for N=C(N)c1ccc(CNS(=O)(=O)c2cnn(Cc3cn4cc(C5CC5)ccc4n3)c2)cc1 [Example I-32] , report its pEC50.
Key: 8.00 to 9.00

Exercise: Using the record for O=C(NCc1csc2ccc(Cl)cc12)c1cnn(Cc2cn3cc(C4CC4)ccc3n2)c1 [Example I-128] , report its pEC50.
Key: 5.70 to 7.00

Exercise: Using the record for O=C(NCc1c(-n2cnnn2)ccc(Cl)c1F)c1cn(Cc2cn3cc(C4CC4)ccc3n2)nn1 [Example I-106] , report its pEC50.
Key: ≥ 9.00

Exercise: Using the record for COc1ccc(-n2cnnn2)c(CNC(=O)c2cn(Cc3cn4cc(C5CC5)ccc4n3)cn2)c1F [Example I-55] , report its pEC50.
Key: ≥ 9.00

Exercise: Using the record for COc1ccc(C#N)c(CNC(=O)c2cn(Cc3cn4cc(C5CC5)cc(CCC(=O)O)c4n3)nn2)c1F [Example I-107] , report its pEC50.
Key: ≥ 9.00

Exercise: Using the record for COc1ccc(F)c(CNC(=O)c2cn(Cc3cn4cc(C5CC5)cc(COCCN(C)C)c4n3)nn2)c1F [Example I-8] , report its pEC50.
Key: 8.00 to 9.00

Exercise: Using the record for O=C(NCc1c(-n2cnnn2)ccc(Br)c1F)c1cn(Cc2cn3cc(C4CC4)ccc3n2)nn1 [Example I-90] , report its pEC50.
Key: ≥ 9.00

Exercise: Using the record for COc1ccc(F)c(CNC(=O)c2cn(Cc3cn4cc(C5CC5)cc(CC(C)(C)C#N)c4n3)nn2)c1F [Example I-12] , report its pEC50.
Key: 8.00 to 9.00

Exercise: Using the record for Cc1cc(CN)cc(C)c1CNS(=O)(=O)c1cnn(Cc2cn3cc(C4CC4)ccc3n2)c1 [Example I-41] , report its pEC50.
Key: 5.15 to 5.70

Exercise: Using the record for N#Cc1cc(C2CC2)cn2cc(Cn3cc(C(=O)NC4CCc5c4ccnc5N)nn3)nc12 (stereo not shown) [Example I-14] , report its pEC50.
Key: 8.00 to 9.00

Exercise: Using the record for COc1ccc(-n2cnnn2)c(CNC(=O)c2cn(Cc3cn4cc(C5CC5)cc(CCC(=O)O)c4n3)nn2)c1F [Example I-92] , report its pEC50.
Key: ≥ 9.00

Exercise: Using the record for Nc1nnc(CNC(=O)c2cn(Cc3cn4cc(C5CC5)ccc4n3)nn2)o1 [Example I-19] , report its pEC50.
Key: 5.15 to 5.70
